Task for the reader: assign each of the following molecules its reported GI50.
Test system: TK-10
methodDescription: NCI tumour cell line growth inhibition, 48 h
The source made the active and inactive calls. Rule as the data show it: active = GI50 up to about 1.1 µM and inactive = higher.

Give reported GI50 value for `Cc1cc2c3c(ccc4[nH]cc(c43)CN2c2ccc(NS(C)(=O)=O)cc2)n1`
26.2 µM (inactive)

Give reported GI50 value for `CC(=O)O[C@H]1CC[C@H]2[C@@H]3CCC4=C/C(=N/OCCN(C)C)CC[C@]4(C)[C@H]3CC[C@]12C`
11.3 µM (inactive)

Give reported GI50 value for `OC1=CN=COc2ccccc21`
> 100 µM (inactive)

Give reported GI50 value for `O=S(=O)(Cc1nc2ccccc2s1)c1nc2ccccc2s1`
20 µM (inactive)

Give reported GI50 value for `NS(=O)(=O)c1ccc(-n2c(-c3cccs3)nc3ccc(I)cc3c2=O)cc1`
25.4 µM (inactive)

Give reported GI50 value for CC(=O)OC12CC[N+]3(C)CCCCC3C1=Nc1ccccc12 (stereo not given)
> 100 µM (inactive)

Give reported GI50 value for `Nc1ccc(C(=O)N/C(=C\c2ccc3c(c2)OCO3)c2nc3c(O)nc(S)nc3[nH]2)cc1`
> 100 µM (inactive)

Give reported GI50 value for `O=c1[nH]c(=S)[nH]n1C(=S)n1[nH]c(=S)[nH]c1=O`
> 100 µM (inactive)

Give reported GI50 value for `O=c1c2ccccc2nc(-c2ccccc2)n1NC(=S)Nc1ccccc1`
> 100 µM (inactive)

Give reported GI50 value for C[C@@H]1C2=CC[C@@]3(C)C(CCC3[C@H](C)[C@H]3C[C@@]4(C)O[C@@](c5cccnc5)(O3)OC4(C)C)[C@@H]2C2OC2[C@@]12CCC(=O)O2 (stereo not given in full)
44.8 µM (inactive)
